As shown below, each of these molecules has a reported growth at 10 µM value.
Assay: Cytotoxicity against human HCT116 cells assessed as cell growth at 10 uM after 24 hrs by SRB assay
Format: functional
Conditions: HCT-116, 24 h, read-out: Activity
Endpoint name: growth at 10 µM (%)

>>> print(df.to_string())
                                 mol_smiles    endpoint_name  quantitative_readout
0  COCCCNc1nc(NC(=O)c2cc(OC)cc(OC)c2)cc(-c2cccnc2)n1  growth at 10 µM                  90.3
1  O=C(Nc1cc(-c2cccnc2)nc(NCCCN2CCOCC2)n1)c1cc(Br)cc(C(F)(F)F)c1  growth at 10 µM                  35.7
2  COCCCNc1nc(NC(=O)c2cc(Br)cc(C(F)(F)F)c2)cc(-c2cccnc2)n1  growth at 10 µM                  85.6
3  Cc1cc(Cl)ccc1C(=O)Nc1cc(-c2cccnc2)nc(NCCCN2CCOCC2)n1  growth at 10 µM                  99.8
4  COCCCNc1nc(NC(=O)c2ccc(Cl)cc2C)cc(-c2cccnc2)n1  growth at 10 µM                   101
5  COc1cc(OC)cc(C(=O)Nc2cc(-c3cccnc3)nc(NCCCN3CCOCC3)n2)c1  growth at 10 µM                  89.2
6  O=C(Nc1cc(-c2cccnc2)nc(NCCCN2CCOCC2)n1)c1ccc(F)cc1Cl  growth at 10 µM                   106

----------
System: A498
Test: Cytotoxicity against human A498 cells assessed as cell growth at 10 uM after 24 hrs by SRB assay
Assay type: functional
Conditions: A498, 24 h, read-out: Activity
Mark Not fulfilled for growth at 10 µM values under 80%, and Fulfilled for everything at or above.

>>> print(df.to_string())
                                 mol_smiles  tested_on   answer_label
0  COCCCNc1nc(NC(=O)c2cc(OC)cc(OC)c2)cc(-c2cccnc2)n1       A498  Not fulfilled
1  COCCCNc1nc(NC(=O)c2ccc(Cl)cc2C)cc(-c2cccnc2)n1       A498      Fulfilled
2  COc1cc(OC)cc(C(=O)Nc2cc(-c3cccnc3)nc(NCCCN3CCOCC3)n2)c1       A498      Fulfilled
3  COCCCNc1nc(NC(=O)c2cc(Br)cc(C(F)(F)F)c2)cc(-c2cccnc2)n1       A498  Not fulfilled
4  Cc1cc(Cl)ccc1C(=O)Nc1cc(-c2cccnc2)nc(NCCCN2CCOCC2)n1       A498      Fulfilled
5  O=C(Nc1cc(-c2cccnc2)nc(NCCCN2CCOCC2)n1)c1cc(Br)cc(C(F)(F)F)c1       A498  Not fulfilled

----------
Entries annotated with measured growth at 10 µM
Assay: Cytotoxicity against human UACC62 cells assessed as cell growth at 10 uM after 24 hrs by SRB assay
Format: functional
Conditions: UACC-62, 24 h, read-out: Activity
Endpoint name: growth at 10 µM (%)

>>> df
                                 mol_smiles  unit_of_measure  quantitative_readout
0  Cc1cc(Cl)ccc1C(=O)Nc1cc(-c2cccnc2)nc(NCCCN2CCOCC2)n1                %                   102
1  O=C(Nc1cc(-c2cccnc2)nc(NCCCN2CCOCC2)n1)c1ccc(F)cc1Cl                %                   105
2  COc1cc(OC)cc(C(=O)Nc2cc(-c3cccnc3)nc(NCCCN3CCOCC3)n2)c1                %                  97.6
3  COCCCNc1nc(NC(=O)c2cc(Br)cc(C(F)(F)F)c2)cc(-c2cccnc2)n1                %                  90.5
4  COCCCNc1nc(NC(=O)c2cc(OC)cc(OC)c2)cc(-c2cccnc2)n1                %                   111
5  COCCCNc1nc(NC(=O)c2ccc(Cl)cc2C)cc(-c2cccnc2)n1                %                   109
6  O=C(Nc1cc(-c2cccnc2)nc(NCCCN2CCOCC2)n1)c1cc(Br)cc(C(F)(F)F)c1                %                 -6.13
